Could you please report measured normalised response for the items listed next?
Test system: MDA-MB-468
Method Description: normalised response (% of control), CellTox Green; higher = less cell death (100 = DMSO, 0 = benzethonium chloride kill control)
Conditions: incubation time: 72 h
Report the figure in % without appending any unit label.

Give its normalised response value. Item: CCCCCOC(=O)Nc1nc(=O)n([C@@H]2O[C@H](C)[C@@H](O)[C@H]2O)cc1F [Capecitabine] (10000 nM)
100

Give its normalised response value. Item: N[C@@H](Cc1ccc(N(CCCl)CCCl)cc1)C(=O)O [Melphalan] (125 nM)
87.3

Give its normalised response value. Item: O=NN(CCCl)C(=O)NC1CCCCC1 [Lomustine] (1000 nM)
128

Give its normalised response value. Item: CO[C@H](C(=O)[C@@H](O)[C@@H](C)O)[C@@H]1Cc2cc3cc(O[C@H]4C[C@@H](O[C@@H]5C[C@@H](O)[C@H](O)[C@@H](C)O5)[C@H](O)[C@@H](C)O4)c(C)c(O)c3c(O)c2C(=O)[C@H]1O[C@H]1C[C@@H](O[C@@H]2C[C@@H](O)[C@@H](O[C@@H]3C[C@](C)(O)[C@H](O)[C@@H](C)O3)[C@@H](C)O2)[C@H](O)[C@@H](C)O1 [Plicamycin] (10000 nM)
54

Give its normalised response value. Item: CCc1cnn2c(NCc3ccc[n+]([O-])c3)cc(N3CCCC[C@H]3CCO)nc12 [Dinaciclib] (10 nM)
82.9

Give its normalised response value. Item: Nc1nc(Cl)nc2c1ncn2[C@@H]1O[C@H](CO)[C@@H](O)[C@@H]1F [Clofarabine] (10000 nM)
73.1

----------
Test system: CAL-120
Method Description: normalised response (% of control), CellTox Green; higher = less cell death (100 = DMSO, 0 = benzethonium chloride kill control)
Conditions: incubation time: 72 h
Test Readout: normalised response (%)
Report the figure in % without appending any unit label.

Form field - read-out: normalised response; system: CAL-120; submitted item: CO[C@H]1C[C@@H]2CC[C@@H](C)[C@@](O)(O2)C(=O)C(=O)N2CCCC[C@H]2C(=O)O[C@H]([C@H](C)C[C@@H]2CC[C@@H](O)[C@H](OC)C2)CC(=O)[C@H](C)/C=C(\C)[C@@H](O)[C@@H](OC)C(=O)[C@H](C)C[C@H](C)/C=C/C=C/C=C/1C [Sirolimus] (100 nM)
106

Form field - read-out: normalised response; system: CAL-120; submitted item: CC[C@H](CC#N)OC(=O)N[C@@H](C)c1cccc(NC(=O)Nc2ccc(-c3cnco3)c(OC)c2)c1 [AVN944] (10000 nM)
102

Form field - read-out: normalised response; system: CAL-120; submitted item: O=C(O)CC[C@H]1CC[C@@](c2cc(F)ccc2F)(S(=O)(=O)c2ccc(Cl)cc2)CC1 [MK-0752] (10 nM)
107

Form field - read-out: normalised response; system: CAL-120; submitted item: NC(=O)NO [Hydroxyurea] (100000 nM)
101

Form field - read-out: normalised response; system: CAL-120; submitted item: CC[C@@H]1C(=O)N(C)c2cnc(Nc3ccc(C(=O)N[C@H]4CC[C@H](N5CCN(CC6CC6)CC5)CC4)cc3OC)nc2N1C(C)C [Volasertib] (10 nM)
91.6

Form field - read-out: normalised response; system: CAL-120; submitted item: Cn1cc(C[C@@H](N)C(=O)O)c2ccccc21 [1-methyl-D-tryptophan] (50 nM)
96.8
